Catalogue of Population Tubulin-Different-Phenotype (%) readings, one per entry.
# Tested on: Fibroblast
# ASSAY: Multiplex assay against human fibroblast
# Type: toxicity, cell-based
# CONDITION_LABEL: 24 h, 1 µM, compound concentration 1 uM, replicate 2
READOUT_LABEL: Population Tubulin-Different-Phenotype (%)

COMPOUND | VALUE
C[C@H](NC(=O)CNC(=O)c1cccc(Cl)c1)c1ccccc1 | 42
Cc1cc(-c2ccc3c(c2)CC[C@H]3N2CC3(CCN(C(=O)Cc4cn5cc(C)sc5n4)CC3)C2)ncn1 [PF-5190457] | 54
COCCCN1CCC(NC(=O)c2cc(Cl)c(N)c3c2OCC3)CC1 [PRUCALOPRIDE] | 50
CC(C)(C)c1ccc(CSc2cnn(C(C)(C)C)c(=O)c2Cl)cc1 [PYRIDABEN] | 50
OCCCNc1cc(-c2ccnc(Nc3cccc(Cl)c3)n2)ccn1 | 55
CCCCCCNC(=O)Nc1ccc(S(=O)(=O)Nc2ccc(CCNC[C@H](O)COc3ccc(O)cc3)cc2)cc1 [L-755507] | 44
Cc1cc(=O)n(C)c2cc(N3C(=O)CC[C@H](NS(=O)(=O)CC(C)C)[C@H]3c3ccc(Cl)cc3)ccc12 | 70
N[C@](CC1c2ccccc2Oc2ccccc21)(C(=O)O)[C@H]1C[C@@H]1C(=O)O | 44
Cc1nn(C)c2nc(NNC(=O)Nc3cc(Cl)nc(Cl)c3)cc(C(C)C)c12 | 50
